Test: NCI Yeast Anticancer Drug Screen. Data for the bub3 strain (AID 167)
Conditions: S. cerevisiae bub3 mutant strain, at 5.0 µM (retest, dose inferred, filed as 0.5), hits give high values
Description: Growth inhibition of yeast strains with defined genetic alterations is measured as a screen for potential anti-cancer activity. Selected strains with alterations in DNA damage repair or cell cycle control were exposed to compounds and growth inhibition was measured relative to vehicle treated controls. The strain used in this assay is bub3
The panel holds about 79,000 compounds, 15% with a hit somewhere; the sample as a whole holds those more often.
assay-readout: growth inhibition (%)
Give the number; % is assumed, so skip it.

Observe how each entry below is paired with its result.
*Q* Recorded growth inhibition for `Cc1ccc(S(=O)(=O)CC(=O)CC(=O)C(=O)Nc2cc(C)ccc2C)cc1` , please?
*A* -2

*Q* Entry under review: `O=S(=O)(N/N=C/c1ccc(Cl)cc1Cl)c1ccccc1` . Reported growth inhibition?
*A* 17

*Q* Which growth inhibition reading was recorded for the molecule `O=c1cc(-c2ccccc2)oc(-c2ccccc2)c1` ?
*A* -68

*Q* What does the record list as growth inhibition for `COc1cc2c(cc1OC)-c1nc(N)sc1CC2` ?
*A* -2

*Q* Return reported growth inhibition; argument: `[N-]=[N+]=NC1=C(C(=O)c2ccccc2)C(=O)c2cccc3cccc1c23`
*A* 8

Others:
*Q* # get_value(readout='growth inhibition', item= `CC(C)(C)CC(C)(C)N[P+](NC(C)(C)CC(C)(C)C)(NC(C)(C)CC(C)(C)C)NC(C)(C)CC(C)(C)C` )
*A* 96

*Q* Requested read-out: growth inhibition. Entry: `CC(C)c1ccc2c(c1)CC[C@@H]1[C@](C)(CO)CCC[C@]21C`
*A* -3

*Q* Which value of growth inhibition has been reported for CCN1CCC(O)(/C=C/c2ccccc2)C(C(=O)/C=C/c2ccccc2)C1 (stereo not drawn) in the records?
*A* 8

*Q* Need growth inhibition of `NNc1ccccc1F` , thanks.
*A* -45

*Q* Consider the molecule shown here: Cc1cc(Cl)cc2c1NC(=O)C2(O)C/C(=N/NC(=O)CC#N)c1cccc([N+](=O)[O-])c1 (stereo not drawn) What is its recorded growth inhibition?
*A* 1
